Biological target: T1, Soluble recombinant human urokinase receptor (suPAR) (human, UniProt Q03405 23-299, limits assumed, biotinylated in the plate assays (sites not given))
T1 construct: Only called a soluble truncated form of the urokinase receptor; also called soluble uPAR; biotinylated suPAR
T1 sequence (Q03405 23-299 limits assumed): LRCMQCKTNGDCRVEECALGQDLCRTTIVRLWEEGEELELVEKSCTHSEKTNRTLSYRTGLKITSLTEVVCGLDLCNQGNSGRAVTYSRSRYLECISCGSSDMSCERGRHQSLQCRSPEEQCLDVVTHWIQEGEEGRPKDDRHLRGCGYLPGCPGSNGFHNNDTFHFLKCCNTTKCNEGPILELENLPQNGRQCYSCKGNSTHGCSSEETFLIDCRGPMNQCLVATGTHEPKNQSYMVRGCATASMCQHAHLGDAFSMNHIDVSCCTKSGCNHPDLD
Assay: competition with phage displaying peptide 9 for soluble uPAR
Square brackets hold non-standard residues; d marks the D form. Ends that are not written are not given here.
Parameter Measured: % Inhibition at 2.5 uM (%)
Express it in %; write the number only.

1. A[dE]FFKLGPNGYVYLHSA-NH2 (N-terminus assumed; SMILES CC(C)C[C@H](NC(=O)[C@H](CCCCN)NC(=O)[C@H](Cc1ccccc1)NC(=O)[C@H](Cc1ccccc1)NC(=O)[C@@H](CCC(=O)O)NC(=O)[C@H](C)N)C(=O)NCC(=O)N1CCC[C@H]1C(=O)N[C@@H](CC(N)=O)C(=O)NCC(=O)N[C@@H](Cc1ccc(O)cc1)C(=O)N[C@H](C(=O)N[C@@H](Cc1ccc(O)cc1)C(=O)N[C@@H](CC(C)C)C(=O)N[C@@H](Cc1c[nH]cn1)C(=O)N[C@@H](CO)C(=O)N[C@@H](C)C(N)=O)C(C)C) [Analog 83] = 44

Now for the binder whose % Inhibition at 2.5 uM we want.
Input AEFFKLGPNGYVYLH[dS]A-NH2 (N-terminus assumed; SMILES CC(C)C[C@H](NC(=O)[C@H](CCCCN)NC(=O)[C@H](Cc1ccccc1)NC(=O)[C@H](Cc1ccccc1)NC(=O)[C@H](CCC(=O)O)NC(=O)[C@H](C)N)C(=O)NCC(=O)N1CCC[C@H]1C(=O)N[C@@H](CC(N)=O)C(=O)NCC(=O)N[C@@H](Cc1ccc(O)cc1)C(=O)N[C@H](C(=O)N[C@@H](Cc1ccc(O)cc1)C(=O)N[C@@H](CC(C)C)C(=O)N[C@@H](Cc1c[nH]cn1)C(=O)N[C@H](CO)C(=O)N[C@@H](C)C(N)=O)C(C)C) [Analog 95] . Output % Inhibition at 2.5 uM: 47
